Exercise: state measured clearance for each of the compounds provided.
- assay_notes: Blood clearance in male Wistar rat at 0.3 to 5 mg/kg, iv and po by LC-MS/MS analysis
- Assay type: ADME, organism-based
- condition_description: dose 0.3-5 mg/kg
Answer in mL/min/kg, number only, no unit symbol.

Ask | Requested field: clearance. Item: Cc1nsc(NC(=O)C(C)N2CCC(c3nc(-c4cc5ccccc5o4)cs3)CC2)c1Cl (racemic)
Reply | 118

Ask | Please report the recorded clearance for `Fc1cccc2[nH]c(CN3CCC(c4nc(-c5cc6ccccc6o5)cs4)CC3)nc12` .
Reply | 18.3

Ask | If you can, please state the reported clearance value of CCc1nccc(N2CCC(N3CCC(c4nc(-c5cc6ccccc6o5)cs4)CC3)C2=O)c1Cl (single isomer, unassigned; form 1) .
Reply | 45

Ask | For `Cc1nsc(NC(=O)CN2CCC(c3nc(-c4cc5ccccc5o4)cs3)CC2)c1Cl` , what is its reported clearance?
Reply | 163
